- assay_explanation: Cell cycle arrest in KB/HeLa cells by accumulation at G1 phase at 10 nM
- Type: functional, cell-based
- experimental_setup: Homo sapiens
Activity listing for selected molecules.
Respond with the bare value in %.

COc1cc(/C=C2/c3ccccc3C(=O)c3ccsc32)cc(OC)c1O :: 64.8

Attention now turns to another entry.
IN: Value lookup for Activity; key = COc1cc2c(c(OC)c1OC)-c1ccc(OC)c(=O)cc1[C@@H](NC(C)=O)CC2 [COLCHICINE]
OUT: 32.2

###

- System: P388
- assay_explanation: Antiproliferative activity against P388 ADR cells by XTT assay after 48 hrs
- Type: functional, cell-based
- experimental_setup: Mus musculus, P388, 48 h
measure_name: IC50 (nM)
Respond with the bare value in nM.

Examples with their reported IC50 follow.
CC[C@]1(O)C[C@@H]2CN(CCc3c([nH]c4ccccc34)[C@@](C(=O)OC)(c3cc4c(cc3OC)N(C)[C@H]3[C@@](O)(C(N)=O)[C@H](O)[C@]5(CC)C=CCN6CC[C@]43[C@@H]65)C2)C1 :: 1100
COC(=O)Nc1nc2cc(C(=O)c3cccs3)ccc2[nH]1 :: 170
COc1cc(/C=C2/c3ccccc3C(=O)c3ccsc32)cc(OC)c1O :: 220

Attention now turns to another entry.
IN: Give P388 IC50 for "COc1ccc(/C=C2/c3ccccc3C(=O)c3ccsc32)c(OC)c1O"
OUT: 160

###

- assay_explanation: Cell cycle arrest in KB/HeLa cells by accumulation at S phase at 316 nM
- Format: functional, cell-based
- experimental_setup: Homo sapiens
Please note: TRUE applies when Activity is 6% or greater, and FALSE applies otherwise.

Answered examples (2):
CC(=O)O[C@H]1C(=O)[C@@]2(C)[C@H]([C@H](OC(=O)c3ccccc3)[C@]3(O)C[C@H](OC(=O)[C@H](O)[C@@H](NC(=O)c4ccccc4)c4ccccc4)C(C)=C1C3(C)C)[C@]1(OC(C)=O)CO[C@@H]1C[C@@H]2O :: TRUE
COc1cc2c(c(OC)c1OC)-c1ccc(OC)c(=O)cc1[C@@H](NC(C)=O)CC2 :: FALSE

Here is another compound to look at.
IN: Exam item: decide whether the reported Activity for "COc1cc(/C=C2/c3ccccc3C(=O)c3ccsc32)cc(OC)c1O" is at least 6%.
OUT: TRUE

###

log10 IC50 listing for selected compounds.
- test_system: Tubulin (Sus scrofa, UniProt P02554+P02550)
- assay_explanation: Inhibition of tubulin polymerization in porcine brain
In plain terms, each number is the log10 of measured IC50 in µM.

Examples with their reported log10 IC50 follow.
COc1cc(/C=C2/c3ccccc3C(=O)c3ccsc32)ccc1O :: -0.06
O=C1c2ccccc2/C(=C/c2ccccc2)c2sccc21 :: 0.79
COc1ccc(/C=C2/c3ccccc3C(=O)c3ccsc32)cc1 :: 0.52
O=C1c2ccccc2/C(=C/c2c[nH]c3ccccc23)c2sccc21 :: 0.45
COc1ccc(/C=C2/c3ccccc3C(=O)c3ccsc32)c(O)c1 :: -0.11
COc1ccc(COc2c3ccccc3cc3sccc23)cc1 :: 0.18

IN: Value lookup for log10 IC50; key = "COc1ccc(/C=C2/c3ccccc3C(=O)c3ccsc32)cc1O"
OUT: 0.15

IN: Value lookup for log10 IC50; key = "COc1ccc(COc2c3ccccc3cc3sccc23)cc1OC"
OUT: 0.60

IN: Value lookup for log10 IC50; key = "COc1cc(/C=C2/c3ccccc3C(=O)c3ccsc32)cc(OC)c1OC"
OUT: 0.87

IN: Value lookup for log10 IC50; key = "O=C1c2ccccc2/C(=C/c2cccs2)c2sccc21"
OUT: 0.13

IN: Value lookup for log10 IC50; key = "COc1ccc(/C=C2/c3ccccc3C(=O)c3ccsc32)c(OC)c1O"
OUT: -0.30

IN: Value lookup for log10 IC50; key = "COc1cc(/C=C2/c3ccccc3C(=O)c3ccsc32)cc(OC)c1O"
OUT: -0.42

###

- assay_explanation: Cell cycle arrest in KB/HeLa cells by accumulation at S phase at 3.16 nM
- Assay type: functional, cell-based
- experimental_setup: Homo sapiens
Activity listing for selected compounds.
Respond with the bare value in %.

Examples with their reported Activity follow.
COc1cc2c(c(OC)c1OC)-c1ccc(OC)c(=O)cc1[C@@H](NC(C)=O)CC2 :: 25.1
COC(=O)Nc1nc2cc(C(=O)c3cccs3)ccc2[nH]1 :: 24.8
CC(=O)O[C@H]1C(=O)[C@@]2(C)[C@H]([C@H](OC(=O)c3ccccc3)[C@]3(O)C[C@H](OC(=O)[C@H](O)[C@@H](NC(=O)c4ccccc4)c4ccccc4)C(C)=C1C3(C)C)[C@]1(OC(C)=O)CO[C@@H]1C[C@@H]2O :: 27
COc1cc(/C=C2/c3ccccc3C(=O)c3ccsc32)cc(OC)c1O :: 24.5

IN: Value lookup for Activity; key = "CC[C@]1(O)C[C@H]2CN(CCc3c([nH]c4ccccc34)[C@@](C(=O)OC)(c3cc4c(cc3OC)N(C=O)[C@H]3[C@@](O)(C(=O)OC)[C@H](OC(C)=O)[C@]5(CC)C=CCN6CC[C@]43[C@@H]65)C2)C1"
OUT: 26

###

Activity listing for selected compounds.
- assay_explanation: Cell cycle arrest in KB/HeLa cells by accumulation at G2/M phase at 3.16 nM
- Type: functional, cell-based
- experimental_setup: Homo sapiens
Answer format: number, then unit.

CC(=O)O[C@H]1C(=O)[C@@]2(C)[C@H]([C@H](OC(=O)c3ccccc3)[C@]3(O)C[C@H](OC(=O)[C@H](O)[C@@H](NC(=O)c4ccccc4)c4ccccc4)C(C)=C1C3(C)C)[C@]1(OC(C)=O)CO[C@@H]1C[C@@H]2O [PACLITAXEL] :: 9.4%
CC[C@]1(O)C[C@H]2CN(CCc3c([nH]c4ccccc34)[C@@](C(=O)OC)(c3cc4c(cc3OC)N(C=O)[C@H]3[C@@](O)(C(=O)OC)[C@H](OC(C)=O)[C@]5(CC)C=CCN6CC[C@]43[C@@H]65)C2)C1 [VINCRISTINE] :: 65.8%
COc1cc(/C=C2/c3ccccc3C(=O)c3ccsc32)cc(OC)c1O :: 9.2%

Attention now turns to another entry.
IN: Value lookup for Activity; key = COC(=O)Nc1nc2cc(C(=O)c3cccs3)ccc2[nH]1 [NOCODAZOLE]
OUT: 10.6%

###

- assay_explanation: cells
- experimental_setup: Rattus norvegicus, LT12, 48 h
- Description: Antiproliferative activity against LT12 cells by XTT assay after 48 hrs
measure_name: IC50 (nM)
Respond with the bare value in nM.

Examples with their reported IC50 follow.
COC(=O)Nc1nc2cc(C(=O)c3cccs3)ccc2[nH]1 [NOCODAZOLE] :: 40
CC[C@]1(O)C[C@@H]2CN(CCc3c([nH]c4ccccc34)[C@@](C(=O)OC)(c3cc4c(cc3OC)N(C)[C@H]3[C@@](O)(C(N)=O)[C@H](O)[C@]5(CC)C=CCN6CC[C@]43[C@@H]65)C2)C1 [VINDESINE] :: 1

IN: Value lookup for IC50; key = "COc1cc(/C=C2/c3ccccc3C(=O)c3ccsc32)cc(OC)c1O"
OUT: 130

IN: Value lookup for IC50; key = "COc1ccc(/C=C2/c3ccccc3C(=O)c3ccsc32)c(OC)c1O"
OUT: 180

###

- assay_explanation: Cell cycle arrest in KB/HeLa cells by accumulation at G1 phase at 31.6 nM
- Assay type: functional, cell-based
- experimental_setup: Homo sapiens
Activity listing for selected compounds.
Respond with the bare value in %.

COC(=O)Nc1nc2cc(C(=O)c3cccs3)ccc2[nH]1 [NOCODAZOLE] :: 64.4
CC[C@]1(O)C[C@H]2CN(CCc3c([nH]c4ccccc34)[C@@](C(=O)OC)(c3cc4c(cc3OC)N(C=O)[C@H]3[C@@](O)(C(=O)OC)[C@H](OC(C)=O)[C@]5(CC)C=CCN6CC[C@]43[C@@H]65)C2)C1 [VINCRISTINE] :: 1
CC(=O)O[C@H]1C(=O)[C@@]2(C)[C@H]([C@H](OC(=O)c3ccccc3)[C@]3(O)C[C@H](OC(=O)[C@H](O)[C@@H](NC(=O)c4ccccc4)c4ccccc4)C(C)=C1C3(C)C)[C@]1(OC(C)=O)CO[C@@H]1C[C@@H]2O [PACLITAXEL] :: 31.1
COc1cc(/C=C2/c3ccccc3C(=O)c3ccsc32)cc(OC)c1O :: 65.4

Attention now turns to another entry.
IN: Value lookup for Activity; key = COc1cc2c(c(OC)c1OC)-c1ccc(OC)c(=O)cc1[C@@H](NC(C)=O)CC2 [COLCHICINE]
OUT: 0.5

###

- assay_explanation: Cell cycle arrest in KB/HeLa cells by accumulation at S phase at 1 nM
- Format: functional, cell-based
- experimental_setup: Homo sapiens
measure_name: Activity (%)
Respond with the bare value in %.

Examples with their reported Activity follow.
CC(=O)O[C@H]1C(=O)[C@@]2(C)[C@H]([C@H](OC(=O)c3ccccc3)[C@]3(O)C[C@H](OC(=O)[C@H](O)[C@@H](NC(=O)c4ccccc4)c4ccccc4)C(C)=C1C3(C)C)[C@]1(OC(C)=O)CO[C@@H]1C[C@@H]2O [PACLITAXEL] :: 26.7
COc1cc(/C=C2/c3ccccc3C(=O)c3ccsc32)cc(OC)c1O :: 25.9
COC(=O)Nc1nc2cc(C(=O)c3cccs3)ccc2[nH]1 [NOCODAZOLE] :: 23.6

IN: Value lookup for Activity; key = CC[C@]1(O)C[C@H]2CN(CCc3c([nH]c4ccccc34)[C@@](C(=O)OC)(c3cc4c(cc3OC)N(C=O)[C@H]3[C@@](O)(C(=O)OC)[C@H](OC(C)=O)[C@]5(CC)C=CCN6CC[C@]43[C@@H]65)C2)C1 [VINCRISTINE]
OUT: 28.3

IN: Value lookup for Activity; key = COc1cc2c(c(OC)c1OC)-c1ccc(OC)c(=O)cc1[C@@H](NC(C)=O)CC2 [COLCHICINE]
OUT: 25.4
